All values here come from the supplement of paper PMC10981050.

tested on: MARIMO; test: cell viability relative to vehicle control; higher = less cytotoxic; details: 10 µM; SRSF2 genotype: SRSF2 P95H/wt;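 also: after 48 h exposure read by CellTiter-Glo luminescence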
The compounds listed here are annotated with their cell viability.

{"compound": "Nc1ccc(-c2ccc3ncc4ccc(=O)n(-c5cccc(C(F)(F)F)c5)c4c3c2)cn1 [Torin 2]", "cell viability, %": 16.5}
{"compound": "COc1cccc(/C=N/N(C(=O)C(F)(F)F)c2ccc(C)cc2C)c1", "cell viability, %": 83.5}
{"compound": "CNC(=O)c1cc(Oc2ccc3nc(N[C@@H]4CCCC[C@H]4O)sc3c2)ccn1", "cell viability, %": 100}
{"compound": "C=C1/C(=C\\C=C2/CCC[C@]3(C)[C@@H]([C@H](C)/C=C/[C@H](C)C(C)C)CC[C@@H]23)C[C@@H](O)C[C@@H]1O [Doxercalciferol (Hectorol)]", "cell viability, %": 69.6}

====

tested on: OCI-AML2; test: cell viability relative to vehicle control; higher = less cytotoxic; details: 10 µM; SRSF2 genotype: P95H/wt

{"molecule": "NC(=O)[C@@H]1CC[C@@H]2CN1C(=O)N2OS(=O)(=O)O [Avibactam sodium]", "measurement-target": "OCI-AML2", "cell viability [%]": 102}
{"molecule": "CC(C)=CCC[C@@H](C)CC=O", "measurement-target": "OCI-AML2", "cell viability [%]": 105}
{"molecule": "O=S(=O)(O)CCS", "measurement-target": "OCI-AML2", "cell viability [%]": 92}
{"molecule": "C[C@@H]1O[C@@H](O[C@H]2[C@H](O[C@H]3CC[C@@]4(C)[C@@H](CC[C@]5(C)[C@@H]4CC=C4[C@@H]6CC(C)(C)CC[C@]6(C(=O)O)CC[C@]45C)[C@]3(C)CO)OC[C@H](O)[C@@H]2O)[C@H](O)[C@H](O)[C@H]1O", "measurement-target": "OCI-AML2", "cell viability [%]": 45}
{"molecule": "COc1ccc2cc3[n+](cc2c1O)CCc1cc2c(cc1-3)OCO2", "measurement-target": "OCI-AML2", "cell viability [%]": 103}
{"molecule": "Cc1c(C)c(NCC(=O)N(C)C2CCN(Cc3ccc(C(N)=O)cc3)CC2)c(C)c(C)c1N", "measurement-target": "OCI-AML2", "cell viability [%]": 98.7}
{"molecule": "O=C(O)CC(O)(CC(=O)OCc1ccc(O[C@@H]2O[C@H](CO)[C@@H](O)[C@H](O)[C@H]2O)cc1)C(=O)OCc1ccc(O[C@@H]2O[C@H](CO)[C@@H](O)[C@H](O)[C@H]2O)cc1 (some centres not stated)", "measurement-target": "OCI-AML2", "cell viability [%]": 99.6}

====

tested on: MARIMO; assay: cell viability relative to vehicle control; higher = less cytotoxic; settings: 10 µM; SRSF2 genotype: SRSF2 P95H/wt
quantity-kind: cell viability (%)

{"molecule": "COc1cc(OC)c2c(=O)[nH]c(-c3cc(C)c(OCCO)c(C)c3)nc2c1", "measurement-target": "MARIMO", "val": 80.1}
{"molecule": "Cc1ccc([C@@H]2O[C@H](CO)[C@@H](O)[C@H](O)[C@H]2O)cc1Cc1ccc(-c2ccc(F)cc2)s1", "measurement-target": "MARIMO", "val": 99}
{"molecule": "O=CC(O)C(O)C(O)C(O)COC1OC(COC2OC(CO)C(O)C(O)C2O)C(O)C(O)C1O (stereo unspecified)", "measurement-target": "MARIMO", "val": 97.8}
{"molecule": "CCN(c1cc(-c2ccc(CN3CCOCC3)cc2)cc(C(=O)NCc2c(C)cc(C)[nH]c2=O)c1C)C1CCOCC1 [Tazemetostat (EPZ-6438)]", "measurement-target": "MARIMO", "val": 93.3}
{"molecule": "CCc1c(Cl)c(O)c(Cl)c(O)c1C(=O)O[C@H]1[C@H](O)[C@H](OC)[C@H](OC/C2=C\\C=C\\C[C@H](O)/C(C)=C/[C@H](CC)[C@@H](O[C@@H]3OC(C)(C)[C@@H](OC(=O)C(C)C)[C@H](O)[C@@H]3O)/C(C)=C/C(C)=C/C[C@@H]([C@@H](C)O)OC2=O)O[C@@H]1C", "measurement-target": "MARIMO", "val": 86.2}
{"molecule": "Nc1ccn([C@H]2CC[C@@H](CO)O2)c(=O)n1", "measurement-target": "MARIMO", "val": 107}
